tested system: human V2 receptor (Homo sapiens, UniProt P30518)
Sequence (P30518 whole entry): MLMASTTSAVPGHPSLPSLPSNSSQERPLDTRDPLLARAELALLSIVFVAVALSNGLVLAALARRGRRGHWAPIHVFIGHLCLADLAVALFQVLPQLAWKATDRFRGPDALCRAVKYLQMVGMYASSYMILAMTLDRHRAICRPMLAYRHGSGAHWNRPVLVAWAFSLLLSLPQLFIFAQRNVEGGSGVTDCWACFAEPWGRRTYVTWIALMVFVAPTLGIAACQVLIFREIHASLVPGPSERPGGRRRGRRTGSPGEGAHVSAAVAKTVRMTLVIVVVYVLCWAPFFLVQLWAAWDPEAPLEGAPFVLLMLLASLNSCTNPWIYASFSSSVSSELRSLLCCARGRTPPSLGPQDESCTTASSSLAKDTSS
run description: V2 vasopressin receptor functional activity (cAMP accumulation, V2-HEK cells)
Format: cell-based
Set-up: expressed in transfected cells; host or cells: HEK-293
condition: block of vasopressin-stimulated cAMP accumulation in V2-HEK cells
IC50 reference
measure: IC50 (µM)

- O=C(O)CC(=O)N1CCC2(CCN(C(=O)c3ccc(NC(=O)c4ccccc4-c4ccccc4)cc3)c3ccccc3C2)C1 (stereo not shown) [Compound 26]: 0.272
- CCOC(=O)CN1CCC2(CCN(C(=O)c3ccc(NC(=O)c4ccccc4-c4ccccc4)cc3)c3ccccc3C2)C1 (stereo not shown) [Compound 23]: 0.673
- CN1CCCC2(CCN(C(=O)c3ccc(NC(=O)c4ccccc4-c4ccccc4)cc3)c3ccccc3C2)C1 (stereo not shown) [Compound 10]: 0.064
- COC(=O)CN1CCC2(CCN(C(=O)c3ccc(NC(=O)c4ccccc4-c4ccccc4)cc3)c3ccccc3C2)C1 (stereo not shown) [Compound 22]: 0.049

// data source = patent US7825110B2
